The entries below are paired with their reported OD450.
- Target under test: T1, human CD22-ECD-His protein (human, UniProt P20273 20-687)
- T1 construct: Made in house in HEK293E; also called hCD22-ECD-His; recombinant human CD22-ECD His protein; not shown: His tag
- T1 sequence: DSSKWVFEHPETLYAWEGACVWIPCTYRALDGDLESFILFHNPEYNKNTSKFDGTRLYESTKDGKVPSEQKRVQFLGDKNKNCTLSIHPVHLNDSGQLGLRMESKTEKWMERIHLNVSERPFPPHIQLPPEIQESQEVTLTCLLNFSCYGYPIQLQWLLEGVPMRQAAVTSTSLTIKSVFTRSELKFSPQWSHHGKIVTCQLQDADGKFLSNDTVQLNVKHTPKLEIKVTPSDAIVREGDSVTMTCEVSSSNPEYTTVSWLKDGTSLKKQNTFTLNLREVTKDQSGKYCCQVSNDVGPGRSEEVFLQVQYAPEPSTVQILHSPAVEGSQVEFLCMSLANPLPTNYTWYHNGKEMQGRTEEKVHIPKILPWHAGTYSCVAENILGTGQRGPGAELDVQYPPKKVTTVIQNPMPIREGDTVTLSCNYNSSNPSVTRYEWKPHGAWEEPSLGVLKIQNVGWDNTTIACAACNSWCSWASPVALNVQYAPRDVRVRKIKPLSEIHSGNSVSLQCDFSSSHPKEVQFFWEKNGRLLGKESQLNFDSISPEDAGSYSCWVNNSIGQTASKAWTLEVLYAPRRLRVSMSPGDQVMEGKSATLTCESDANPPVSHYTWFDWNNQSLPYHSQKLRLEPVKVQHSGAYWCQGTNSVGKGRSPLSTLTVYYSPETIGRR
- Assay overview: ELISA, Ab 0.00001 nM
- Procedure: In order to detect the binding activity of CD22 human-murine chimeric antibodies to CD22 protein, the purified human CD22-ECD-His protein obtained in Example 2 was diluted with PBS to a final concentration of 2 μg/mL, and then added to 96-well ELISA plate at 100 μl/well. The plate was sealed with plastic film and incubated overnight at 4° C., the plate was washed 2 times with PBS the next day, and then a blocking solution [PBS+2% (w/w) BSA] was added for blocking at room temperature for 2 hours. […]
Measured quantity: OD450 (OD450)

F1.200.11 (antibody, human IgG1, kappa, V domains shown, Human-murine chimeric IgG1, kappa) VH: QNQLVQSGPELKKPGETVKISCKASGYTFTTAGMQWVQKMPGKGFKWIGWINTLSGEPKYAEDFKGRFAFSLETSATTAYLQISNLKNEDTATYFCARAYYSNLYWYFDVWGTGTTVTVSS VL: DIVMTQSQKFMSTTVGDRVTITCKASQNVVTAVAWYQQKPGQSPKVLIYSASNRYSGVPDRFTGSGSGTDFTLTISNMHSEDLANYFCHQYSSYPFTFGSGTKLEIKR : 0.33
F1.267.9 (antibody, human IgG1, kappa, V domains shown, Human-murine chimeric IgG1, kappa) VH: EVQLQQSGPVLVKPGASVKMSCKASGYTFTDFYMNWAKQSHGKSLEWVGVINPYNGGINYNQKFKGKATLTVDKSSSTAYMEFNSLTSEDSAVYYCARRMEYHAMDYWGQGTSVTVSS VL: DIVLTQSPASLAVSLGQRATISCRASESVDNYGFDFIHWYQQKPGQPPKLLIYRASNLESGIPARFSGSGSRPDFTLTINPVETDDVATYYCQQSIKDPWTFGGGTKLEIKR : 0.06
F2.343.16 (antibody, human IgG1, lambda, V domains shown, Human-murine chimeric IgG1, lambda) VH: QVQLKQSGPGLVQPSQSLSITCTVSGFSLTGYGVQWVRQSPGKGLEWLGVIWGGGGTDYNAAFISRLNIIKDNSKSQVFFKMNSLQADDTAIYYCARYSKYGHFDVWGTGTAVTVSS VL: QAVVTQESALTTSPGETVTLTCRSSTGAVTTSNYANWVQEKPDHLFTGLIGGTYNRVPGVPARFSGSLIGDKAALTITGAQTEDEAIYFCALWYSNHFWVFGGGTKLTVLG : 0.18
F1.60.9 (antibody, human IgG1, kappa, V domains shown, Human-murine chimeric IgG1, kappa) VH: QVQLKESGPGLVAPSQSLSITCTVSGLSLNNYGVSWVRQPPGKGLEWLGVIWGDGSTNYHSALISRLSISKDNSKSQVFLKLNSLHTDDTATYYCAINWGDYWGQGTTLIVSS VL: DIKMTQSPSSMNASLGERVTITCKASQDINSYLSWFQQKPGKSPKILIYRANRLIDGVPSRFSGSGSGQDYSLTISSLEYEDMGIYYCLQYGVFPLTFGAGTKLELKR : 0.09
F2.104.10 (antibody, human IgG1, lambda, V domains shown, Human-murine chimeric IgG1, lambda) VH: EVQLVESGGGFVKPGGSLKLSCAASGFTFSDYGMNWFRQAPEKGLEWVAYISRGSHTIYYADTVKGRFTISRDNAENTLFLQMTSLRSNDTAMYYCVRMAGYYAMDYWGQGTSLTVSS VL: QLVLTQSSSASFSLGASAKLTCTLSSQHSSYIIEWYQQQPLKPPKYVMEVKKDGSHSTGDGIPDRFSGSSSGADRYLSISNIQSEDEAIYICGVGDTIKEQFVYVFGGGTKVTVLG : 0.22
F1.7.6 (antibody, human IgG1, kappa, V domains shown, Human-murine chimeric IgG1, kappa) VH: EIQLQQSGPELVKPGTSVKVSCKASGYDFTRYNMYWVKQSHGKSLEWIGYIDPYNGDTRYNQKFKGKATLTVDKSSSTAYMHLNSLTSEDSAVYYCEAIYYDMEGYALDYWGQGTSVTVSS VL: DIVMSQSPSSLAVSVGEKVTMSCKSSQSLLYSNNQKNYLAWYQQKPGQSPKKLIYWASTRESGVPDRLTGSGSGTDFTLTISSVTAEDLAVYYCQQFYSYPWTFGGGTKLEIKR : 0.15
F2.42.9 (antibody, human IgG1, lambda, V domains shown, Human-murine chimeric IgG1, lambda) VH: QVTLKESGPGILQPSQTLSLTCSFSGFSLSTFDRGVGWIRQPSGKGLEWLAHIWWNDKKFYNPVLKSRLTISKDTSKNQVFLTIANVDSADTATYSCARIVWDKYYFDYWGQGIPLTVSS VL: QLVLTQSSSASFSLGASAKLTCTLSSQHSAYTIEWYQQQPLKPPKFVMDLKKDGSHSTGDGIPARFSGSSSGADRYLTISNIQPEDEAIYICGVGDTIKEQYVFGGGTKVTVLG : 0.09
F1.105.11 (antibody, human IgG1, kappa, V domains shown, Human-murine chimeric IgG1, kappa) VH: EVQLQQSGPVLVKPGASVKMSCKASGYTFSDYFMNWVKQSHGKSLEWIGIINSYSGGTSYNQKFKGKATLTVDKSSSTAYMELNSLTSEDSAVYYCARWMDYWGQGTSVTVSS VL: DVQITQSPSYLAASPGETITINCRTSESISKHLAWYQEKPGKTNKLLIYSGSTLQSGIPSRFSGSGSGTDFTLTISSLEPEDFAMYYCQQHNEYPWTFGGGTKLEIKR : 0.08
F1.245.2 (antibody, human IgG1, kappa, V domains shown, Human-murine chimeric IgG1, kappa) VH: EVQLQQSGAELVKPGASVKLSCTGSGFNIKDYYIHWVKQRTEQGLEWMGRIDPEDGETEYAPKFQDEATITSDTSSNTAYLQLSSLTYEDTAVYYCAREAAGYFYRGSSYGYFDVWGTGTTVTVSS VL: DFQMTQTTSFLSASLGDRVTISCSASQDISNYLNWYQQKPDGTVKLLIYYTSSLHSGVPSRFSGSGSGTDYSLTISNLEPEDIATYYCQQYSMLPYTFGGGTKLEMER : 0.22
F1.192.1 (antibody, human IgG1, kappa, V domains shown, Human-murine chimeric IgG1, kappa) VH: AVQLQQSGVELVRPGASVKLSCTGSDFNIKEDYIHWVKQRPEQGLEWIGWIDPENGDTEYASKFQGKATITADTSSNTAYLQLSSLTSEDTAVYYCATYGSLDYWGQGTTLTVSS VL: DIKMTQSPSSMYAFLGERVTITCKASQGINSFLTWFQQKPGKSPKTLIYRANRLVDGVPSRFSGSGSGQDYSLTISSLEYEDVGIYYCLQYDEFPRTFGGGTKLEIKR : 0.06

Reference source: patent US20240084003A1
